Cited source for all entries: PubChem BioAssay (EPA / NIEHS)

- ASSAY_NAME: TOX21_p53_BLA_p2_viability: Viability Assessment in the Tox21 HCT-116 p53 Agonism Beta-lactamase Assay, Phase 2 (AID 2283591);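 note: compound exposure lasted 16 h at 37 °C; actives lower the ATP signal meaning cytotoxicity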
Records with an inconclusive call do not appear. The source made the active and inactive calls. Rule for the calls: active = hit-call score of the fitted dose curve at least 0.9, where 1 is the maximum; inconclusive = response in the unintended direction; inactive = score below 0.9.
Field 'call' accepts active, inactive

Answered cases to consult:
Ask: How was CC[N+](C)(C)Cc1ccccc1Br classified in this test?
Reply: inactive

Ask: Could you kindly confirm the outcome this assay logged for CC(N)CCCC(C)(C)O (centres undefined) ?
Reply: inactive

Ask: // return assay outcome for CC(C)Nc1cccnc1N1CCN(C(=O)c2cc3cc(NS(C)(=O)=O)ccc3[nH]2)CC1
Reply: inactive

More entries:
Ask: Assay result, entry C=Cc1ccccc1 — outcome?
Reply: inactive

Ask: Which outcome was entered for the compound Cc1cc(CC(=O)O)n(C)c1C(=O)c1ccc(Cl)cc1 in this test?
Reply: inactive

Ask: Please indicate how the test categorized Brc1ccc(Oc2ccc(Br)cc2)cc1 .
Reply: inactive

Ask: Hi, do you know how Cc1cc(C)cc(OCC2CNC(=O)O2)c1 (centres undefined) came out in this test?
Reply: inactive

Ask: Dear colleague, could you share the recorded outcome for COC(=O)C1=C(C)NC(C)=C(C(=O)OCC(C)=O)C1c1ccccc1[N+](=O)[O-] (centres undefined) when you have a moment?
Reply: inactive

Ask: Dear all, I need the recorded test outcome for O=C(O)CCCCCCCCCCCBr , thank you.
Reply: inactive

Ask: Identify the outcome logged in this assay for the compound shown: COC(=O)[C@@H](N)CS
Reply: inactive

Ask: What call does the record list for CCCCCCCCCCCCCCCCCCOCC(O)CO (centres undefined) ?
Reply: inactive

Ask: Outcome logged for O=C1c2ccccc2C(=O)C1c1ccc2ccccc2n1 in this assay:
Reply: inactive

Ask: In this assay, the call recorded for C#CCN(C)Cc1ccccc1 was what?
Reply: inactive

Ask: Fill in: this test's call for CO[C@@H]1[C@H](OC(=O)/C=C/C=C/C=C/C=C/C(=O)O)CC[C@]2(CO2)[C@H]1[C@@]1(C)O[C@@H]1CC=C(C)C is ___
Reply: inactive

Ask: How did this test come out for OCCN(CCO)c1cccc(Cl)c1 ?
Reply: inactive

Ask: Which outcome did this test record for the compound CO[C@@H]1[C@@H](O[C@@H]2O[C@H](C)[C@@H](O[C@H]3C[C@@](C)(O)[C@@H](O)[C@H](C)O3)[C@H](N(C)C)[C@H]2O)[C@@H](CC=O)C[C@@H](C)[C@@H](O[C@@H]2CC[C@H](N(C)C)[C@@H](C)O2)/C=C/C=C/C[C@@H](C)OC(=O)C[C@H]1OC(C)=O ?
Reply: inactive

Ask: Dear colleague, could you share the recorded outcome for CC(O)C(CO)C(C)O (centres undefined) when you have a moment?
Reply: inactive

Ask: # fetch the recorded call for CCCCOC(=O)c1ccccc1C(=O)OCC(CC)CCCC (centres undefined) here
Reply: inactive

Ask: Please state the recorded outcome for this compound: CC[C@@H]([C@H](C)O)n1ncn(-c2ccc(N3CCN(c4ccc(OC[C@@H]5CO[C@@](Cn6cncn6)(c6ccc(F)cc6F)C5)cc4)CC3)cc2)c1=O
Reply: inactive

Ask: Give the logged outcome of this assay for the following compound: NC(=O)c1ccncc1
Reply: inactive

Ask: Please indicate how the test categorized CC(O)(c1ccc(Cl)cc1)c1ccc(Cl)cc1 .
Reply: inactive

Ask: Which outcome was assigned to O=C(OCC1(COC(=O)c2cccnc2)CCCC(COC(=O)c2cccnc2)(COC(=O)c2cccnc2)C1O)c1cccnc1 in this test?
Reply: inactive

Ask: Called result for CCCCCCOc1ccccc1C(N)=O
Reply: inactive

Ask: Query: recorded result category for Cc1cccc(C)c1NC(=O)c1ccccc1C(=O)O in this test
Reply: inactive

Ask: What was the test verdict on O=C(CN1CCN(Cc2ccc3c(c2)OCO3)CC1)N1c2ccccc2Sc2ccccc21 ?
Reply: inactive

Ask: # fetch the recorded call for C=CC(=O)OCCOC(=O)CCC(=O)O here
Reply: inactive
